# Test system: T-47D breast
# test protocol: NCI tumour cell line growth inhibition, 48 h
Where a SMILES comes first, the peptide text is derived from it. The star is where a group is joined. Boc = CC(C)(C)OC(=O)*; OBn = c1ccc(CO*)cc1

compound: CCOc1cc2c(cc1O)/C(=N/NS(=O)(=O)c1ccc(C)cc1)C[C@@H]1[C@@H]2CC[C@]2(C)[C@@H](O)CC[C@@H]12
TGI: > 100 µM
//
compound: CC(=O)O[C@H]1CCn2c3c(c(C)c21)C(=O)C(N1CC1)=C(C)C3=O
TGI: > 10 µM
//
compound: O=C1C(=C(I)I)c2ccccc2-c2ccccc21
TGI: > 100 µM
//
compound: CC(NC(=O)C(Cc1ccccc1)NC(=O)C(Cc1ccccc1)NC(=O)OC(C)(C)C)C(=O)OCc1ccccc1 (stereo not drawn) (Boc-Phe-Phe-Ala-OBn; configuration not given here)
TGI: > 100 µM
//
compound: CC(C)(C)OC(=O)N(CCNS(=O)(=O)c1cccc2cnccc12)CCC(=O)ON1C(=O)CCC1=O
TGI: > 100 µM

----------
# Test system: SK-MEL-5 melanoma
# test protocol: NCI tumour cell line growth inhibition, 48 h; in the data active = GI50 below about 0.43 µM; inactive = the rest
Labels: active, inactive

molecule: O=C(COc1cccc(/C=C2\COc3ccc(Cl)cc3C2=O)c1)c1ccc(Cl)cc1
category label: inactive
--
molecule: O=C(OCCBr)c1ccc(Cl)c([N+](=O)[O-])c1
category label: inactive
--
molecule: COc1cc(C(=O)/C=C/c2cccnc2Nc2ccccc2)cc(OC)c1OC
category label: inactive
--
molecule: O=C(CCCSc1nc(-c2ccccc2)cc(-c2ccc(Cl)cc2)n1)NO
category label: inactive
--
molecule: CCCCN(CCCC)c1ccc(C(=NC(C)CCCN(CC)CC)c2ccc(N(C)C)cc2)cc1 (stereo unspecified)
category label: inactive
--
molecule: COc1ccc(-c2nn(-c3cccc(Cl)c3)cc2-c2cc(-c3ccccc3)nc(N)n2)cc1
category label: inactive
--
molecule: COc1cc(C2C3=C(COC3=O)Nc3cc4c(cc32)CCC4)cc2c1OCO2 (stereo unspecified)
category label: active
--
molecule: COCCNc1cc(NC(=O)N2CCCc3cc(CN4CCN(C)CC4=O)c(C=O)nc32)ncc1C#N
category label: inactive
--
molecule: CN(C)CC1CCCCCC(CN(C)C)C1=O (stereo unspecified)
category label: inactive
--
molecule: COc1ccc2c(c1)C(C)Cc1c(Cl)nc(C)nc1N2C (stereo unspecified)
category label: inactive
--
molecule: CCOc1ccccc1/C=N\N=C(\N)N/N=C/c1ccccc1OCC
category label: inactive

----------
# System: HS 578T breast
# test protocol: NCI tumour cell line growth inhibition, 48 h
Where a SMILES comes first, the peptide text is derived from it. The star is where a group is joined. Boc = CC(C)(C)OC(=O)*; OBn = c1ccc(CO*)cc1
readout name: TGI

compound: COC(=O)CC(=O)Nc1sccc1S(=O)(=O)c1ccccc1
test target: HS 578T breast
test result: > 100 µM

compound: Nc1nc(N)c2[nH]cnc2n1 (tested in a mixture with another compound)
test target: HS 578T breast
test result: > 100 µM

compound: CC(NC(=O)C(Cc1ccccc1)NC(=O)C(Cc1ccccc1)NC(=O)OC(C)(C)C)C(=O)OCc1ccccc1 (stereo not drawn) (Boc-Phe-Phe-Ala-OBn; configuration not given here)
test target: HS 578T breast
test result: > 100 µM

compound: Cn1cc(-c2ccc(-c3cn(C)c4ccc(Cl)cc34)s2)c2cc(Cl)ccc21
test target: HS 578T breast
test result: > 100 µM

compound: C=CCCCC1CCCNC1=S (configuration not stated)
test target: HS 578T breast
test result: > 100 µM

compound: O=C(NCCc1ccccc1)c1c(O)c2ccccc2[nH]c1=O
test target: HS 578T breast
test result: > 100 µM

compound: C/C(=N\NC(=S)NC(C)(C)C)c1ccccn1
test target: HS 578T breast
test result: > 100 µM

compound: CC(C)(C)OC(=O)N/N=C(/N)Cc1ccccc1
test target: HS 578T breast
test result: > 100 µM

compound: O=C1CC(C(=O)N2CCCCC2)n2c(=O)n(-c3ccccc3)c(=O)n2C1 (configuration not stated)
test target: HS 578T breast
test result: > 100 µM

compound: COc1ccc(C(=O)N(C(=S)OCCOc2ccccc2)c2ccccc2)cc1
test target: HS 578T breast
test result: > 100 µM

compound: Cc1ccc(Nc2nc(NS(=O)(=O)c3cc(C(=O)Nc4ccc(Cl)cc4)c(Cl)cc3S)n[nH]2)cc1
test target: HS 578T breast
test result: > 100 µM

compound: CCSc1nc(=[N+]2CCCC2)ss1
test target: HS 578T breast
test result: > 100 µM

compound: CCCCCC[C@H]1C(=O)O[C@H](C)[C@H](NC(=O)c2cccc(NC=O)c2OC)C(=O)O[C@@H](C)[C@@H]1OC(=O)CC(C)C (tested in a mixture with another compound)
test target: HS 578T breast
test result: > 100 µM

compound: COc1cc(Oc2nc3c(N)cc(C(F)(F)F)cc3nc2-c2ccccc2)cc(OC)c1OC
test target: HS 578T breast
test result: > 53.8 µM

compound: CC(C)C/C=C/C1=NN(c2cccc(S(=O)(=O)O)c2)C2(C1)SCC(=O)N2c1nc2ccccc2s1 (configuration not stated)
test target: HS 578T breast
test result: > 100 µM

compound: N#Cc1[nH]c(=O)n(-c2cccc3ccccc23)c1N
test target: HS 578T breast
test result: > 10 µM

compound: c1ccc(P(CCP(CCP(c2ccccc2)c2ccccc2)c2ccccc2)CCP(c2ccccc2)c2ccccc2)cc1 (configuration not stated)
test target: HS 578T breast
test result: > 10 µM
